- Tested on: SNB-19 CNS
- procedure_details: NCI tumour cell line growth inhibition, 48 h
Overview of recorded GI50 for various compounds

Exam item: Would you mind telling me what GI50 value was observed for O=C(/C=C/OC(=O)c1cccc(Cl)c1)c1ccc(Cl)cc1 ?
Marked response: > 56.5 µM

Exam item: Then COC1=CC(=O)c2nc(Cl)ccc2C1=O ?
Marked response: 13.7 µM

---
Exam item: Endpoint output: GI50 of CCn1ccc(NS(=O)(=O)c2ccc(N)cc2)nc1=O . Value?
Marked response: > 100 µM

Exam item: Do the same for CN(C)CCNC(=O)NC[C@H]1CC[C@@H]2[C@H](O1)c1cc(C(F)(F)F)ccc1N[C@H]2c1ccccc1 please
Marked response: 0.624 µM

Exam item: // repeat for Cc1cc(=O)oc2cc(OC/C=C3\CCC(=O)O3)ccc12 and report
Marked response: 15.5 µM

Exam item: And then Cc1cc(Cl)cc(Cc2cc(Cl)cc(C)c2O)c1O , what is it?
Marked response: 3.32 µM
